- tested on: Vasopressin V2 receptor (Homo sapiens); further: assay procedure not described here
- Sequence (P30518 whole entry): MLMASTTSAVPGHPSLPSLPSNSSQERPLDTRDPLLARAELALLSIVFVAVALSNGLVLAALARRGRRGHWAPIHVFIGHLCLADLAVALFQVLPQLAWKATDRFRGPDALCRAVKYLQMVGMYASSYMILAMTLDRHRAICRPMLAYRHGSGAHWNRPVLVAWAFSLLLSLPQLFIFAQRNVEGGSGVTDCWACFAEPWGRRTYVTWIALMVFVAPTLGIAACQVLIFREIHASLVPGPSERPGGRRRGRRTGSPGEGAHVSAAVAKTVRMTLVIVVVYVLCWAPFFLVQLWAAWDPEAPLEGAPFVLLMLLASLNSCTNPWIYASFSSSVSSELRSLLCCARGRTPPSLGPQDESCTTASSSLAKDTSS
Where a SMILES comes first, the peptide text is derived from it.
assay metric: AC50

{"compound": "C[C@@H](Cc1ccccc1)N(C)Cc1ccccc1 [BENZPHETAMINE]", "AC50": "> 10 µM"}
{"compound": "O=C(O[C@H]1C[N+]2(CCCOc3ccccc3)CCC1CC2)C(O)(c1cccs1)c1cccs1 [ACLIDINIUM BROMIDE]", "AC50": "> 30 µM"}
{"compound": "CCCCCCOC(=O)NC(=N)c1ccc(NCc2nc3cc(C(=O)N(CCC(=O)OCC)c4ccccn4)ccc3n2C)cc1 [DABIGATRAN ETEXILATE]", "AC50": "> 30 µM"}
{"compound": "COc1cccc2c1C(=O)c1c(O)c3c(c(O)c1C2=O)C[C@@](O)(C(=O)CO)C[C@@H]3O[C@H]1C[C@H](N)[C@H](O)[C@H](C)O1 [DOXORUBICIN]", "AC50": "> 30 µM"}
{"compound": "CC(=O)OCC1=C(C(=O)O)N2C(=O)[C@@H](NC(=O)Cc3cccs3)[C@H]2SC1 [CEPHALOTHIN]", "AC50": "> 30 µM"}
{"compound": "CC(=O)OCC(=O)[C@@]1(O)CC[C@H]2[C@@H]3CCC4=CC(=O)CC[C@]4(C)[C@@]3(F)[C@@H](O)C[C@@]21C [FLUDROCORTISONE ACETATE]", "AC50": "> 30 µM"}
{"compound": "CCC1(c2ccccc2)C(=O)NCNC1=O [PRIMIDONE]", "AC50": "> 10 µM"}
{"compound": "COc1cc(N)cn[n+]1-c1ccccc1 [AMEZINIUM METILSULFATE]", "AC50": "> 30 µM"}

Identify measured AC50 obtained with Vasopressin V2 receptor (Homo sapiens) for CCc1ccc(C(=O)C(C)CN2CCCCC2)cc1 (stereo not given) [EPERISONE] .
> 30 µM

// fetch AC50; item: C[C@H](N)C(=O)N[C@@H](CCC(N)=O)C(=O)O [ALANYL GLUTAMINE] (H-Ala-Gln-OH) ; system: Vasopressin V2 receptor (Homo sapiens); further: assay procedure not described here
> 30 µM

Provide the reported AC50 (system: Vasopressin V2 receptor (Homo sapiens)) for CC(=O)[C@@]1(O)CC[C@H]2[C@@H]3C[C@H](C)C4=CC(=O)C=C[C@]4(C)[C@@]3(F)[C@@H](O)C[C@@]21C [FLUOROMETHOLONE]; further: assay procedure not described here
> 10 µM

Provide AC50, recorded with Vasopressin V2 receptor (Homo sapiens), of OCCOCCN1CCN(C(c2ccccc2)c2ccc(Cl)cc2)CC1 (stereo not given) [HYDROXYZINE]
> 30 µM

---

Measurement record for Kappa-type opioid receptor (Homo sapiens, UniProt P41145); quantity recorded: AC50.

Please review the entries below; each comes with its answer.
{"compound": "COC(=O)CCc1ccc(OCC(O)CNC(C)C)cc1 (centres undefined)", "endpoint value": "> 30 µM"}
{"compound": "CCC1(CC)C(=O)NC(=O)N(C)C1=O", "endpoint value": "> 10 µM"}
{"compound": "CCOC(=O)O[C@]1(C(=O)COC(=O)CC)CC[C@H]2[C@@H]3CCC4=CC(=O)C=C[C@]4(C)[C@H]3[C@@H](O)C[C@@]21C [PREDNICARBATE]", "endpoint value": "> 10 µM"}
{"compound": "CCN(CC)Cc1nccn1-c1ccc([N+](=O)[O-])cc1C(=O)c1ccccc1Cl", "endpoint value": "6.3 µM"}
{"compound": "CN1CCC(=C2c3ccccc3CC(=O)c3sccc32)CC1", "endpoint value": "5.38 µM"}

In one line, give reported AC50 of the entry Clc1ccc(COC(Cn2ccnc2)c2ccc(Cl)cc2Cl)c(Cl)c1 (centres undefined) .
> 30 µM

Please report the measured AC50 for CCc1ccc(C(=O)C(C)CN2CCCCC2)cc1 (centres undefined)
> 30 µM

Assign AC50 to the following record: `Oc1cc(Cl)ccc1Oc1ccc(Cl)cc1Cl`
> 30 µM

Give AC50 for the following compound: `NS(=O)(=O)c1ccc(N2CCCCS2(=O)=O)cc1`
21 µM
